- TARGET_OF_ASSAY: human PAH with the R408W mutation (Homo sapiens, UniProt P00439, R408W)
- Construct: expressed in transfected cells
- Sequence (P00439 1-452 R408W): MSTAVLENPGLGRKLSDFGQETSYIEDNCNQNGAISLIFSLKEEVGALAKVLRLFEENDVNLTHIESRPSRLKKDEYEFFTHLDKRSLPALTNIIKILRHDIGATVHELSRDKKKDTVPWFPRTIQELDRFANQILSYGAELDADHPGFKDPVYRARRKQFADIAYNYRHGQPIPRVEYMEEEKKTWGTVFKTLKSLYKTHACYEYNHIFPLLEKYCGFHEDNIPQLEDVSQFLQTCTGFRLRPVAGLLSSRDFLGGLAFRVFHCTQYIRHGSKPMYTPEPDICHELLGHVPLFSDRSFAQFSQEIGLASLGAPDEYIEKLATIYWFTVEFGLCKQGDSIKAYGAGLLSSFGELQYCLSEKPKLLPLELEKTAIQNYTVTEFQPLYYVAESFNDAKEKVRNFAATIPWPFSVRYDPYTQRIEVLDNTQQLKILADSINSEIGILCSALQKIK
- ASSAY_PROTOCOL: Cell Based Phenylalanine Flux Assay;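 further: after compound treatment, cells received sepiapterin plus isotope-labelled Phenylalanine for 4 hours, then labelled Tyrosine in the medium was quantified, 10-point 2-fold dilution series run in duplicate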
- TEST_SETTINGS: A375 cells expressing human R408W PAH; 24 hrs compound incubation; 13C-Tyrosine by LC-MS; average where tested multiple times; read-out: AC50
The following molecules are listed with their measured AC50 values.

O=C(c1oc(C2(O)CC2)nc1C(F)F)N1CCc2[nH]cnc2[C@H]1c1cc2ccccn2n1 : < 0.5 µM
Cc1cccn2nc([C@@H]3c4nc[nH]c4CCN3C(=O)c3nnc(C4CCC4)o3)cc12 : < 0.5 µM
O=C(c1ccnn1C(F)(F)F)N1CCc2[nH]cnc2[C@@H]1c1cc2c(F)cccn2n1 : 1 to 5 µM
O=C(c1nnc(-c2ccncn2)o1)N1CCc2[nH]cnc2[C@@H]1c1cc2c(F)cccn2n1 : 1 to 5 µM
C[C@H](O)c1nc(C(F)F)c(C(=O)N2CCc3[nH]cnc3[C@H]2c2cc3cccc(Cl)n3n2)o1 : 0.5 to 1 µM

Q: Form field: AC50 recorded for CC(C)(O)c1nc(C2CC2)c(C(=O)N2CCc3[nH]cnc3[C@H]2c2cc3ccccn3n2)o1 with human PAH with the R408W mutation (Homo sapiens, UniProt P00439, R408W) (enter value)
Result: 1 to 5 µM

Q: Item Cc1cccn2nc([C@@H]3c4nc[nH]c4CCN3c3nnc(-c4ccccn4)o3)cc12 with human PAH with the R408W mutation (Homo sapiens, UniProt P00439, R408W) - AC50?
Result: < 0.5 µM

Q: Enter reported AC50 observed with human PAH with the R408W mutation (Homo sapiens, UniProt P00439, R408W) for CC(C)(F)c1nc(C(F)F)c(C(=O)N2CCc3[nH]cnc3[C@@H]2c2cc3c(F)cccn3n2)o1
Result: 0.5 to 1 µM

Q: What measured AC50 is associated with O=C(c1cnn2cc(C3CC3)ccc12)N1CCc2[nH]cnc2[C@H]1c1cc2cccc(F)n2n1 on human PAH with the R408W mutation (Homo sapiens, UniProt P00439, R408W)?
Result: 0.5 to 1 µM

Q: Test system human PAH with the R408W mutation (Homo sapiens, UniProt P00439, R408W); read-out AC50; what value for Cn1ccc(-c2nnc(C(=O)N3CCc4[nH]cnc4[C@@H]3c3cc4c(Cl)cccn4n3)o2)n1 ?
Result: > 5 µM

Q: Param readout= AC50; system= human PAH with the R408W mutation (Homo sapiens, UniProt P00439, R408W); entry= O=C(c1nnc(-c2cc(C(F)(F)F)ccn2)o1)N1CCc2[nH]cnc2[C@H]1c1cc2ccccn2n1 ; returns value.
Result: < 0.5 µM

Q: Test system human PAH with the R408W mutation (Homo sapiens, UniProt P00439, R408W); read-out AC50; what value for Cn1cc(-c2nnc(C(=O)N3CCc4[nH]cnc4[C@@H]3c3cc4c(C(F)F)cccn4n3)o2)cn1 ?
Result: 1 to 5 µM

Q: So what AC50 did Cc1cccc2cc([C@@H]3c4nc[nH]c4CCN3c3nnc(C(F)F)o3)nn12 get with human PAH with the R408W mutation (Homo sapiens, UniProt P00439, R408W)?
Result: 0.5 to 1 µM
